System: phosphorus and calcium levels in the urine of rats
assay protocol: Urinary excretion of phosphate and calcium in rats (16 h overnight urine)
Type: in vivo, rat
measurement conditions: rats, oral gavage, dose 10 mg/kg, 16 h post-dose
readout kind: Urine P % of control (%)

| structure as smiles | readout kind | reported measurement |
| --- | --- | --- |
| CN1Cc2c(Cl)cc(Cl)cc2[C@H](c2cccc(S(=O)(=O)NCCOCCOCCNC(=O)CC(O)(CC(=O)NCCOCCOCCNS(=O)(=O)c3cccc([C@@H]4CN(C)Cc5c(Cl)cc(Cl)cc54)c3)C(=O)NCCOCCOCCNS(=O)(=O)c3cccc([C@@H]4CN(C)Cc5c(Cl)cc(Cl)cc54)c3)c2)C1 | Urine P % of control | 39 |
| CCCCCCCCCCC(=O)NC(CCC(=O)NCCOCCOCCNS(=O)(=O)c1cccc([C@@H]2CN(C)Cc3c(Cl)cc(Cl)cc32)c1)(CCC(=O)NCCOCCOCCNS(=O)(=O)c1cccc([C@@H]2CN(C)Cc3c(Cl)cc(Cl)cc32)c1)CCC(=O)NCCOCCOCCNS(=O)(=O)c1cccc([C@@H]2CN(C)Cc3c(Cl)cc(Cl)cc32)c1 | Urine P % of control | 66 |
| CN1Cc2c(Cl)cc(Cl)cc2[C@H](c2cccc(S(=O)(=O)NCCOCCOCCOCCNC(=O)NCCCN(CCCNC(=O)NCCOCCOCCOCCNS(=O)(=O)c3cccc([C@@H]4CN(C)Cc5c(Cl)cc(Cl)cc54)c3)CCCNC(=O)NCCOCCOCCOCCNS(=O)(=O)c3cccc([C@@H]4CN(C)Cc5c(Cl)cc(Cl)cc54)c3)c2)C1 | Urine P % of control | 66 |

====

target system: Rat NHE3 (Rattus norvegicus)
Construct: expressed in transfected cells; host or cells: Opossum kidney (OK) cells (ATCC), electroporation
Sequence (P26433 29-831): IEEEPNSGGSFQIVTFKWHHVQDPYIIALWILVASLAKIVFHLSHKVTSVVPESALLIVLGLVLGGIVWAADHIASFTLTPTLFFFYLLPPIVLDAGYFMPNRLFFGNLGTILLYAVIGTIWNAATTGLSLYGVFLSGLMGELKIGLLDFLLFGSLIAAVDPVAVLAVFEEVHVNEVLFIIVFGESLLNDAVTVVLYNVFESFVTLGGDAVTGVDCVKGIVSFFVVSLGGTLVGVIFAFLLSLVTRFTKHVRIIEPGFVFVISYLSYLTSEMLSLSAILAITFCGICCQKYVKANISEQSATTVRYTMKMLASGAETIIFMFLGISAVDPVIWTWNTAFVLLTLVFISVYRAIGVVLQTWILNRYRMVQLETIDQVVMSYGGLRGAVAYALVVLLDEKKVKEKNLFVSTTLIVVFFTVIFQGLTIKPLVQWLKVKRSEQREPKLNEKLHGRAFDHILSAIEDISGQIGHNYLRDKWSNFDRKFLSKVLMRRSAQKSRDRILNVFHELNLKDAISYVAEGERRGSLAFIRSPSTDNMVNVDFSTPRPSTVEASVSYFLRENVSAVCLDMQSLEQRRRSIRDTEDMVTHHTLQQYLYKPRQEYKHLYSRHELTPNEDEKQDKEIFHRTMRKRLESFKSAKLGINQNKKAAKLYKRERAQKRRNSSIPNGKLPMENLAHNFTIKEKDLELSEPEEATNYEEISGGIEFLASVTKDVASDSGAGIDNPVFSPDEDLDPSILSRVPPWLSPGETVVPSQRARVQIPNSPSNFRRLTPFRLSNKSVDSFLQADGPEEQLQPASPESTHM
assay protocol: Cell-based NHE3 activity under prompt conditions (OK cells, BCECF pH recovery), rat NHE3
measurement conditions: Table E5; 001 free base, 002-005 dihydrochloride salt
Form field: Rat NHE3 pIC50 Prompt (one value per entry).
readout kind: Rat NHE3 pIC50 Prompt

| structure as smiles | value modifier | reported measurement |
| --- | --- | --- |
| CN1Cc2c(Cl)cc(Cl)cc2[C@H](c2cccc(S(=O)(=O)NCCOCCOCCNC(=O)Nc3ccc(NC(=O)NCCOCCOCCNS(=O)(=O)c4cccc([C@@H]5CN(C)Cc6c(Cl)cc(Cl)cc65)c4)cc3)c2)C1 | = | 8.6 |
| CN1Cc2c(Cl)cc(Cl)cc2[C@@H](c2cccc(S(=O)(=O)NCCOCCOCCNC(=O)NCCCCNC(=O)NCCOCCOCCNS(=O)(=O)c3cccc([C@@H]4CN(C)Cc5c(Cl)cc(Cl)cc54)c3)c2)C1 | < | 5.0 |
| CN1Cc2c(Cl)cc(Cl)cc2[C@@H](c2cccc(S(=O)(=O)NCCOCCOCCNC(=O)NCCCCNC(=O)NCCOCCOCCNS(=O)(=O)c3cccc([C@H]4CN(C)Cc5c(Cl)cc(Cl)cc54)c3)c2)C1 | = | 7.3 |
| CN1Cc2c(Cl)cc(Cl)cc2[C@H](c2cccc(S(=O)(=O)NCCOCCOCCNC(=O)NCCCCNC(=O)NCCOCCOCCNS(=O)(=O)c3cccc([C@@H]4CN(C)Cc5c(Cl)cc(Cl)cc54)c3)c2)C1 | = | 8 |
| CN1Cc2c(Cl)cc(Cl)cc2[C@H](c2cccc(NC(=O)[C@H](O)[C@@H](O)[C@H](O)[C@H](O)CO)c2)C1 | = | 7.6 |

====

Form field: Prompt Rat NHE3 pIC50 (one value per entry).
target system: Rat NHE3 (Rattus norvegicus)
Construct: expressed in transfected cells; host or cells: Opossum kidney (OK) cells (ATCC), electroporation
assay protocol: Cell-based NHE3 activity under prompt conditions (OK cells, BCECF pH recovery), rat NHE3
measurement conditions: prompt conditions
readout kind: Prompt Rat NHE3 pIC50

| compound | value modifier | reported measurement |
| --- | --- | --- |
| CCCCCCCCCCC(=O)NC(CCC(=O)NCCOCCOCCNS(=O)(=O)c1cccc([C@@H]2CN(C)Cc3c(Cl)cc(Cl)cc32)c1)(CCC(=O)NCCOCCOCCNS(=O)(=O)c1cccc([C@@H]2CN(C)Cc3c(Cl)cc(Cl)cc32)c1)CCC(=O)NCCOCCOCCNS(=O)(=O)c1cccc([C@@H]2CN(C)Cc3c(Cl)cc(Cl)cc32)c1 | < | 5.00 |
| COCCNS(=O)(=O)c1cccc(C2CN(C)Cc3c(Cl)cc(Cl)cc32)c1 (stereo not drawn) | = | 6.70 |
| CC(=O)C(CCC(=O)NCCOCCOCCNS(=O)(=O)c1cccc([C@@H]2CN(C)Cc3c(Cl)cc(Cl)cc32)c1)(CCC(=O)NCCOCCOCCNS(=O)(=O)c1cccc([C@@H]2CN(C)Cc3c(Cl)cc(Cl)cc32)c1)CCC(=O)NCCOCCOCCNS(=O)(=O)c1cccc([C@@H]2CN(C)Cc3c(Cl)cc(Cl)cc32)c1 | = | 6.50 |

====

Form field: Urine Na % of control (one value per entry).
Tested on: absorption of sodium from the intestinal lumen
assay protocol: Inhibition of intestinal sodium absorption: urinary sodium (uNa) 16 h after single oral dose in rats
Format: in vivo, rat
measurement conditions: oral gavage, dose 10 mg/kg, 16 h post-dose
readout kind: Urine Na % of control (%)

| compound | readout kind | reported measurement |
| --- | --- | --- |
| CN1Cc2c(Cl)cc(Cl)cc2[C@H](c2cccc(S(=O)(=O)NCCOCCOCCOCCNC(=O)CC(O)(CC(=O)NCCOCCOCCOCCNS(=O)(=O)c3cccc([C@@H]4CN(C)Cc5c(Cl)cc(Cl)cc54)c3)C(=O)NCCOCCOCCOCCNS(=O)(=O)c3cccc([C@@H]4CN(C)Cc5c(Cl)cc(Cl)cc54)c3)c2)C1 [compound 61] | Urine Na % of control | 21 |
| CN(CC(=O)NCCOCCOCCNC(=O)NCCOCCOCCOCCN1CCN(c2cccc(-c3nc(NC(=N)N)nc4ccc(Cl)cc34)c2)CC1)CC(=O)NCCOCCOCCNC(=O)NCCOCCOCCOCCN1CCN(c2cccc(-c3nc(NC(=N)N)nc4ccc(Cl)cc34)c2)CC1 [compound 42] | Urine Na % of control | 94 |
| CN(CC(=O)NCCOCCOCCNC(=O)NCCOCCOCCOCCOc1cccc(-c2nc(NC(=N)N)nc3ccc(Cl)cc23)c1)CC(=O)NCCOCCOCCNC(=O)NCCOCCOCCOCCOc1cccc(-c2nc(NC(=N)N)nc3ccc(Cl)cc23)c1 [compound 43] | Urine Na % of control | 70 |
| O=C(NCCCCNC(=O)NCCOCCOCCNS(=O)(=O)c1ccc(O[C@H]2c3cc(Cl)cc(Cl)c3C[C@@H]2N2CCCCC2)cc1)NCCOCCOCCNS(=O)(=O)c1ccc(O[C@H]2c3cc(Cl)cc(Cl)c3C[C@@H]2N2CCCCC2)cc1 [compound 68] | Urine Na % of control | 70 |
| CC(C)(C(=O)NCCOCCOCCOCCNS(=O)(=O)c1ccc(O[C@H]2c3ccccc3C[C@@H]2N2CCCCC2)cc1)C(=O)NCCOCCOCCOCCNS(=O)(=O)c1ccc(O[C@H]2c3ccccc3C[C@@H]2N2CCCCC2)cc1 [compound 119] | Urine Na % of control | 43 |
| CN1Cc2c(Cl)cc(Cl)cc2[C@H](c2cccc(S(=O)(=O)NCCOCCOCCOCCNC(=O)NCCN3CCN(c4nc(N5CCN(CCNC(=O)NCCOCCOCCOCCNS(=O)(=O)c6cccc([C@@H]7CN(C)Cc8c(Cl)cc(Cl)cc87)c6)CC5)nc(N5CCN(CCNC(=O)NCCOCCOCCOCCNS(=O)(=O)c6cccc([C@@H]7CN(C)Cc8c(Cl)cc(Cl)cc87)c6)CC5)n4)CC3)c2)C1 [compound 70] | Urine Na % of control | 96 |
| CN1Cc2c(Cl)cc(Cl)cc2[C@H](c2cccc(S(=O)(=O)NCCOCCOCCNC(=O)NCCN(CCNC(=O)NCCOCCOCCNS(=O)(=O)c3cccc([C@@H]4CN(C)Cc5c(Cl)cc(Cl)cc54)c3)C(=O)NCCCCCCCCCCCCNC(=O)N(CCNC(=O)NCCOCCOCCNS(=O)(=O)c3cccc([C@@H]4CN(C)Cc5c(Cl)cc(Cl)cc54)c3)CCNC(=O)NCCOCCOCCNS(=O)(=O)c3cccc([C@@H]4CN(C)Cc5c(Cl)cc(Cl)cc54)c3)c2)C1 [compound 86] | Urine Na % of control | 87 |

====

Form field: Prompt Human NHE3 pIC50 (one value per entry).
target system: Human NHE3 (Homo sapiens)
Construct: expressed in transfected cells; host or cells: Opossum kidney (OK) cells (ATCC), electroporation
Sequence (P48764 26-834): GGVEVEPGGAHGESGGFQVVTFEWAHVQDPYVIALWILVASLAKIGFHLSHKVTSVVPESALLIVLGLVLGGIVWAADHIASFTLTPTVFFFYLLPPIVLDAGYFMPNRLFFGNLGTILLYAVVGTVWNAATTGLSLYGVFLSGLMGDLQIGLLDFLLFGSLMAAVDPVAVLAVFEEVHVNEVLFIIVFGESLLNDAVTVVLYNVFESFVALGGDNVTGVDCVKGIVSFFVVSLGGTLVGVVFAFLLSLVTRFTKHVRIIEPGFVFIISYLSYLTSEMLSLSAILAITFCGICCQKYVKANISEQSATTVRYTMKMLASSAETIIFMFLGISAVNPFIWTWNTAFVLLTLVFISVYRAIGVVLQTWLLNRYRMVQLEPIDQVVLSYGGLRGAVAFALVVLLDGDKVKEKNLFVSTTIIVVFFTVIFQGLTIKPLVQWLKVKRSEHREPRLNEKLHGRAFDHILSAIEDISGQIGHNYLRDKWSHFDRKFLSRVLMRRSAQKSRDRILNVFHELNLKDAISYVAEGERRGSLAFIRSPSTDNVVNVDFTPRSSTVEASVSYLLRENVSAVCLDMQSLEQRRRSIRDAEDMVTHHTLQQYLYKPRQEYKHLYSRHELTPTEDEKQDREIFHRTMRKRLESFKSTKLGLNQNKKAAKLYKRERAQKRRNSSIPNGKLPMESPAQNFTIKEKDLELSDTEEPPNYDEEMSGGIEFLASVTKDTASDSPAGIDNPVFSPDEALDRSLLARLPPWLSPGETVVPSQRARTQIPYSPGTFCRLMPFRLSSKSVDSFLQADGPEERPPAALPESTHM
assay protocol: Cell-based NHE3 activity under prompt conditions (OK cells, BCECF pH recovery), human NHE3
measurement conditions: prompt conditions

| compound | Prompt Human NHE3 pIC50 |
| --- | --- |
| C/C(=C\c1cc(F)c(Oc2ccc(S(=O)(=O)NCCOCCOCCOCCNC(=O)CN(C)CC(=O)NCCOCCOCCOCCNS(=O)(=O)c3ccc(Oc4c(F)cc(/C=C(\C)C(=O)N=C(N)N)cc4F)cc3)cc2)c(F)c1)C(=O)N=C(N)N | 7.10 |
| CN1Cc2c(Cl)cc(Cl)cc2[C@H](c2cccc(S(=O)(=O)NCCOCCOCCNC(=O)NCCCC(CCCNC(=O)NCCOCCOCCNS(=O)(=O)c3cccc([C@@H]4CN(C)Cc5c(Cl)cc(Cl)cc54)c3)(CCCNC(=O)NCCOCCOCCNS(=O)(=O)c3cccc([C@@H]4CN(C)Cc5c(Cl)cc(Cl)cc54)c3)NC(=O)CCC(=O)O)c2)C1 | 7.90 |
| O=C(NCCCCNC(=O)NCCOCCOCCNS(=O)(=O)c1ccc(O[C@H]2c3cc(F)ccc3C[C@@H]2N2CCCCC2)cc1)NCCOCCOCCNS(=O)(=O)c1ccc(O[C@H]2c3cc(F)ccc3C[C@@H]2N2CCCCC2)cc1 | 7.70 |
| CN(C)[C@H]1Cc2ccccc2[C@@H]1Oc1ccc(S(=O)(=O)NCCOCCOCCNC(=O)NCCCCNC(=O)NCCOCCOCCNS(=O)(=O)c2ccc(O[C@H]3c4ccccc4C[C@@H]3N(C)C)cc2)cc1 | 8.55 |
| O=C(CCOCCOCCOCCOCCOCCC(=O)NCCOCCOCCNS(=O)(=O)c1ccc(OC2c3ccccc3CC2N2CCCCC2)cc1)NCCOCCOCCNS(=O)(=O)c1ccc(OC2c3ccccc3CC2N2CCCCC2)cc1 (racemic) | 7.50 |
| NCCOCCOCCN1CCN(c2cccc(-c3nc(N=C(N)N)nc4ccc(Cl)cc34)c2)CC1 | 7.80 |
| N=C(N)Nc1nc(-c2ccc(OCCOCCOCCOCCN)cc2)c2cc(Cl)ccc2n1 | 7.50 |
| CN1Cc2c(Cl)cc(Cl)cc2[C@H](c2cccc(S(=O)(=O)NCCOCCOCCNC(=O)CC(O)(CC(=O)NCCOCCOCCNS(=O)(=O)c3cccc([C@@H]4CN(C)Cc5c(Cl)cc(Cl)cc54)c3)C(=O)NCCOCCOCCNS(=O)(=O)c3cccc([C@@H]4CN(C)Cc5c(Cl)cc(Cl)cc54)c3)c2)C1 | 6.50 |
| CN1Cc2c(Cl)cc(Cl)cc2[C@H](c2cccc(S(=O)(=O)NCCOCCOCCOCCNC(=O)CN3CCN(c4nc(N5CCN(CC(=O)NCCOCCOCCOCCNS(=O)(=O)c6cccc([C@@H]7CN(C)Cc8c(Cl)cc(Cl)cc87)c6)CC5)nc(N5CCN(CC(=O)NCCOCCOCCOCCNS(=O)(=O)c6cccc([C@@H]7CN(C)Cc8c(Cl)cc(Cl)cc87)c6)CC5)n4)CC3)c2)C1 | 6.70 |
| C/C(=C\c1cc(F)c(Oc2ccc(S(=O)(=O)NCCOCCOCCOCCNCc3ccc(CNCCOCCOCCOCCNS(=O)(=O)c4ccc(Oc5c(F)cc(/C=C(\C)C(=O)N=C(N)N)cc5F)cc4)cc3)cc2)c(F)c1)C(=O)N=C(N)N | 7.40 |
| CN1Cc2c(Cl)cc(Cl)cc2[C@H](c2cccc(S(=O)(=O)NCCOCCOCCOCCN)c2)C1 | 6.95 |
| CN1Cc2c(Cl)cc(Cl)cc2[C@H](c2cccc(S(=O)(=O)NCCOCCOCCN(C)C(=O)NCCCN(CCCNC(=O)N(C)CCOCCOCCNS(=O)(=O)c3cccc([C@@H]4CN(C)Cc5c(Cl)cc(Cl)cc54)c3)CCCNC(=O)N(C)CCOCCOCCNS(=O)(=O)c3cccc([C@@H]4CN(C)Cc5cc(Cl)cc(Cl)c54)c3)c2)C1 | 7.20 |
| N=C(N)Nc1nc(-c2cccc(OCCOCCOCCOCCNC(=O)NCCOCCOCCNC(=O)CN(CCN(CC(=O)O)CC(=O)NCCOCCOCCNC(=O)NCCOCCOCCOCCOc3cccc(-c4nc(NC(=N)N)nc5ccc(Cl)cc45)c3)CC(=O)O)c2)c2cc(Cl)ccc2n1 | 7.90 |
| CN1Cc2c(Cl)cc(Cl)cc2[C@H](c2cccc(S(=O)(=O)NCCOCCOCCOCCNC(=O)NCCN3CCN(c4nc(N5CCN(CCNC(=O)NCCOCCOCCOCCNS(=O)(=O)c6cccc([C@@H]7CN(C)Cc8c(Cl)cc(Cl)cc87)c6)CC5)nc(N5CCN(CCNC(=O)NCCOCCOCCOCCNS(=O)(=O)c6cccc([C@@H]7CN(C)Cc8c(Cl)cc(Cl)cc87)c6)CC5)n4)CC3)c2)C1 | 7.20 |
| CN(C)[C@H]1Cc2c(Cl)cc(Cl)cc2[C@@H]1Oc1ccc(S(=O)(=O)NCCOCCOCCNC(=O)C(C)(C)C(=O)NCCOCCOCCNS(=O)(=O)c2ccc(O[C@H]3c4cc(Cl)cc(Cl)c4C[C@@H]3N(C)C)cc2)cc1 | 7.50 |
| CN1Cc2c(Cl)cc(Cl)cc2[C@H](c2cccc(S(=O)(=O)N(C)CCOCCOCCNC(=O)CCN(CCC(=O)NCCOCCOCCN(C)S(=O)(=O)c3cccc([C@@H]4CN(C)Cc5c(Cl)cc(Cl)cc54)c3)CCC(=O)NCCOCCOCCN(C)S(=O)(=O)c3cccc([C@@H]4CN(C)Cc5c(Cl)cc(Cl)cc54)c3)c2)C1 | 6.50 |

Sourced from patent US20240366589A1
